All figures here come from patent US8133884B2.

target: HCV NS5B (Hepatitis C virus genotype 1b); construct: The protein was expressed with an 18 amino acid C-terminal truncation to enhance the solubility; made in house; host or cells: E. coli BL21(DE3); experiment: Modified HCV NS5B RdRp enzyme assay (preincubation protocol); format: biochemical; settings: class symbol
Sequence (Q9WMX2 2420-2992): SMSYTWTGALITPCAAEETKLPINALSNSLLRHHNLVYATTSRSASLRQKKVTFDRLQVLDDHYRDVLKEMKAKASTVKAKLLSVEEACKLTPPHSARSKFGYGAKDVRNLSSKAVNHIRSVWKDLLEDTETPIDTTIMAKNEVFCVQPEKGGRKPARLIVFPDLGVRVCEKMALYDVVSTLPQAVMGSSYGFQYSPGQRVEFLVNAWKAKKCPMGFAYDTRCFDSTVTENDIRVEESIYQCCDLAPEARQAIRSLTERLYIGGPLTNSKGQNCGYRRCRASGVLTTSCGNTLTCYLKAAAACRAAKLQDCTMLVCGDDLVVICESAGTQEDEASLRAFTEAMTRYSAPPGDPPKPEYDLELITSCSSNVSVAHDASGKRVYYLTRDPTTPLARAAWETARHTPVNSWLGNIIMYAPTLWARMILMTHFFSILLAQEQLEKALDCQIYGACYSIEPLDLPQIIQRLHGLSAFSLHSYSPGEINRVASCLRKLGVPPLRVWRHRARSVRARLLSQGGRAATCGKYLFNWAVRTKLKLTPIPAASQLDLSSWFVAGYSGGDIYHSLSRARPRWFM
Please go through the items and note down their IC50.

Worked cases, answers included:
COc1ccc2c(c1)C=C(c1c(C(=O)O)cnn1C1CCC1)Cn1c-2c(C2CCCCC2)c2ccc(C(=O)NS(=O)(=O)CC(C)C)cc21: 1.7 to 500 nM
COc1ccc2c(c1)C=C(c1c(C(=O)N3C4CCC3CN(C)C4)c(C)nn1C1CCC1)Cn1c-2c(C2CCCCC2)c2ccc(C(=O)NS(=O)(=O)C(C)C)cc21: 1.7 to 500 nM
COCC1CN(C(=O)c2cnn(C3CCN(C)CC3)c2C2=Cc3cc(OC)ccc3-c3c(C4CCCCC4)c4ccc(C(=O)NS(=O)(=O)C(C)C)cc4n3C2)CCO1 (stereo not drawn): 1.7 to 500 nM
COc1ccc2c(c1)C=C(c1c(C(=O)N3C[C@@H](C)O[C@@H](C)C3)cnn1-c1ccnc(C)c1)Cn1c-2c(C2CCCCC2)c2ccc(C(=O)NS(=O)(=O)C(C)C)cc21: 1.7 to 500 nM
COc1ccc2c(c1)C=C(c1c(C(=O)N3C4CCCC3COC4)c(C)nn1C1CCC1)Cn1c-2c(C2CCCCC2)c2ccc(C(=O)NS(=O)(=O)C(C)C)cc21: 1.7 to 500 nM

Give the value of IC50 reported for the following: COc1ccc2c(c1)C=C(c1c(C(=O)N3CC[C@H]4C[C@H]43)cnn1C1CCC1)Cn1c-2c(C2CCCCC2)c2ccc(C(=O)NS(=O)(=O)C(C)C)cc21 1.7 to 500 nM
